Where these numbers come from: ChEMBL document CHEMBL1201862

Test system: UACC-257
Experimental details: NCI tumour cell line growth inhibition, 48 h
Calls of active or inactive are those of the source. No stated cut-off is given here; in the data, active = GI50 up to about 1.1 µM and inactive = higher.
Labels: active, inactive

{"Molecule": "Cc1ccc(NCCN(C)C)c2c(=O)c3cc(O)ccc3sc12", "Classification": "inactive"}
{"Molecule": "CC(C)C(=O)/C=C/S/C=C/C(=O)C(C)C", "Classification": "inactive"}
{"Molecule": "CCOC(=O)c1cc(NC(=O)N(CCC#N)CCN(C(=O)N[C@@H](Cc2ccccc2)C(=O)N[C@@H](CC(C)C)C(=O)NC)c2ccccc2)ccc1OC", "Classification": "inactive"}
{"Molecule": "O=C1O[C@]2(c3ccccc3)C(c3ccccc3)=C[C@]2(C(=O)c2ccccc2)C1=O", "Classification": "inactive"}
{"Molecule": "COC(=O)C(=O)C(C(=O)C(=O)Nc1ccccc1C(=O)OC)c1nc2ccc(C(=O)c3ccccc3)cc2nc1O (stereo not given)", "Classification": "inactive"}
{"Molecule": "COC(=O)C12C3C4C1C1C2C3C41C(=O)OC(C)(C)C (stereo not given)", "Classification": "inactive"}
{"Molecule": "O=[N+]([O-])c1cccc2nc3ccccc3c(NCCC[N+]3([O-])CCOCC3)c12", "Classification": "active"}
{"Molecule": "CC(=O)NC1C(CO)O[C@@H]2OC(C)(C)O[C@H]12 (stereo not given in full)", "Classification": "inactive"}
{"Molecule": "C[C@@H](NS(=O)(=O)c1ccc(NC(=O)c2ccccc2)cc1)C(=O)O", "Classification": "inactive"}
{"Molecule": "CC(=O)NC(CS)C(=O)O (stereo not given)", "Classification": "inactive"}
{"Molecule": "CC(=O)OC12c3ccccc3C(c3ccccc31)C1C(=O)N(c3ccccn3)C(=O)C12 (stereo not given)", "Classification": "inactive"}
{"Molecule": "CC(C)(C)[Si](C)(C)OCC1OC(n2cnc3c(=O)[nH]c(N)nc32)C(O[Si](C)(C)C(C)(C)C)C1O[Si](C)(C)C(C)(C)C (stereo not given)", "Classification": "inactive"}
{"Molecule": "CN(C)C(=O)C(F)(F)C(c1ccccc1Br)C1C(=O)N(C)C(=O)N(C)C1=O (stereo not given)", "Classification": "inactive"}
{"Molecule": "Oc1cc(-c2cccc(Cl)c2)nc2ncccc12", "Classification": "inactive"}
{"Molecule": "CC1(C)C=[N+]([O-])C(C)(C)N1", "Classification": "inactive"}
{"Molecule": "N#C[C@@H](c1nc2ccccc2s1)c1ncccc1[N+](=O)[O-]", "Classification": "inactive"}
{"Molecule": "O=c1/c(=C/c2ccc([N+](=O)[O-])o2)sc2n1[C@@H](c1ccc3c(c1)OCO3)C=C(c1cc(F)c(Cl)cc1Cl)N=2", "Classification": "inactive"}
{"Molecule": "O=C(O)/C(Cl)=C(/Cl)C(=O)Nc1cccc(Cl)c1", "Classification": "inactive"}
{"Molecule": "CC(C)C(=O)N1C(=O)O[C@@H](c2ccccc2)[C@H]1C", "Classification": "inactive"}
{"Molecule": "COc1ccc(-c2oc3cc(OC)c(OC)c(OC)c3c(=O)c2OC)cc1OC [HEXAMETHOXYFLAVONE]", "Classification": "inactive"}
